- TEST METHOD NOTES: Metabolic stability in CD-1 mouse liver microsomes assessed as parent compound remaining incubated for 1 hr
- Type: ADME, Microsome
Reported remaining at 1 h by item:
# output: bare number, implied unit %

Some solved entries appear below for comparison.
• O=[N+]([O-])c1cn2c(n1)OC[C@H](OCc1ccc(-c3ccc(OC(F)(F)F)cc3Cl)cc1)C2 = 76
• CC1(COc2ccc(OC(F)(F)F)cc2)CCn2cc([N+](=O)[O-])nc2S1(=O)=O (stereo unspecified) = 76
• O=[N+]([O-])c1cn2c(n1)OC[C@H](OCC#Cc1ccc(-c3ccc(C(F)(F)F)cc3)cn1)C2 = 76
• O=[N+]([O-])c1cn2c(n1)OC[C@H](OCc1ccc(-c3ccc(C(F)(F)F)cc3Cl)cc1)C2 = 83
• O=[N+]([O-])c1cn2c(n1)OC[C@H](OCC#Cc1ccc(-c3ccc(OC(F)(F)F)cc3)cn1)C2 = 74

[Q] Can you share its remaining at 1 h? I mean this compound: CC1(COc2ccc(OC(F)(F)F)cc2)CCn2nc([N+](=O)[O-])nc2O1 (stereo unspecified)
[A] 92
